target: 5-HT2B (Homo sapiens); assay: Competition binding with [3H]-LSD (NIMH PDSP); details: Affinity, Ki 5-HT2B, radioligand [3H]-LSD
Sequence (P41595 whole entry): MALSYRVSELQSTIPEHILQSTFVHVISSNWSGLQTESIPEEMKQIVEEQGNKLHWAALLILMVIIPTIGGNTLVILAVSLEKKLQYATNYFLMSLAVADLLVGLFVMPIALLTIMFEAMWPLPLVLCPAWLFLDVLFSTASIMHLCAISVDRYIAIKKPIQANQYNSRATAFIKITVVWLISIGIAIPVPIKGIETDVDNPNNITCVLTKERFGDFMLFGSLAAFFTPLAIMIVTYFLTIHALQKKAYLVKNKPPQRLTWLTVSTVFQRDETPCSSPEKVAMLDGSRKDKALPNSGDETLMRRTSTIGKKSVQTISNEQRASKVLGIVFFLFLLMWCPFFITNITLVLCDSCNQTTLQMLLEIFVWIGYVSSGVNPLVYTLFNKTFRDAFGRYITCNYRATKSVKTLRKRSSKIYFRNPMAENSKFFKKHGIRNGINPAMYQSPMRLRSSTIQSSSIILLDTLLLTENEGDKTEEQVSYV
result.type: pKi
By convention, pKi is the negative base-10 log of a molar concentration.

{"compound": "COc1cc2c(cc1Br)OCC2CN (centres unmarked)", "pKi": 6.71}

Consider now this further compound.
[ask] What value of pKi has been recorded for this entry: COc1cc2c(cc1Br)OCCCC2CN (centres unmarked)
[reply] 5.73

====

target: 5-HT2A (Homo sapiens, UniProt P28223); experiment: Competition binding with [3H]-ketanserin (NIMH PDSP)
Sequence (P28223 whole entry): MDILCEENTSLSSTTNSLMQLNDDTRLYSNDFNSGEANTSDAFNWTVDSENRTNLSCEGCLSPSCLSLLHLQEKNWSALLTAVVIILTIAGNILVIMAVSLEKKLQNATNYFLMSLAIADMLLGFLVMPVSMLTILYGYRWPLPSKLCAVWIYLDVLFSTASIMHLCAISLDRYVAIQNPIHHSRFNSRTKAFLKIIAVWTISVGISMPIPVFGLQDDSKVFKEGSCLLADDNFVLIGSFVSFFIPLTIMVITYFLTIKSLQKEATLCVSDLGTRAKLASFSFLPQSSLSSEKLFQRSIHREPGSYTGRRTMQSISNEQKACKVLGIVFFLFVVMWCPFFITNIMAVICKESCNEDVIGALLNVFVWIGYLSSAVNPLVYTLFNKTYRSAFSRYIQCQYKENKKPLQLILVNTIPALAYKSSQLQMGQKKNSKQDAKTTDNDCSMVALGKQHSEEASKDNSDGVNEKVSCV
result.type: Ki (µM)
Write the answer as a number in µM, unit excluded.

[ask] What value of Ki has been recorded for this entry: COc1cc2c(cc1Br)OCC2CN (centres unmarked) [Compound 9]
[reply] 1.04
